Target: MKNK1 (human)
Test: KINOMEscan competition binding
Settings: compound 10.0 µM

compound string	kinase still bound, per cent of control [%]
CCN(CCO)CCCOc1ccc2c(Nc3cc(CC(=O)Nc4cccc(F)c4)[nH]n3)ncnc2c1	68
N#C/C(=C1/Nc2ccccc2S1)c1ccnc(NCCc2cccnc2)n1	97
CCCS(=O)(=O)Nc1ccc(F)c(C(=O)c2c[nH]c3ncc(Cl)cc23)c1F	100

----------
Molecular target: UniProt Q07912
Sequence (Q07912 whole entry, looked up): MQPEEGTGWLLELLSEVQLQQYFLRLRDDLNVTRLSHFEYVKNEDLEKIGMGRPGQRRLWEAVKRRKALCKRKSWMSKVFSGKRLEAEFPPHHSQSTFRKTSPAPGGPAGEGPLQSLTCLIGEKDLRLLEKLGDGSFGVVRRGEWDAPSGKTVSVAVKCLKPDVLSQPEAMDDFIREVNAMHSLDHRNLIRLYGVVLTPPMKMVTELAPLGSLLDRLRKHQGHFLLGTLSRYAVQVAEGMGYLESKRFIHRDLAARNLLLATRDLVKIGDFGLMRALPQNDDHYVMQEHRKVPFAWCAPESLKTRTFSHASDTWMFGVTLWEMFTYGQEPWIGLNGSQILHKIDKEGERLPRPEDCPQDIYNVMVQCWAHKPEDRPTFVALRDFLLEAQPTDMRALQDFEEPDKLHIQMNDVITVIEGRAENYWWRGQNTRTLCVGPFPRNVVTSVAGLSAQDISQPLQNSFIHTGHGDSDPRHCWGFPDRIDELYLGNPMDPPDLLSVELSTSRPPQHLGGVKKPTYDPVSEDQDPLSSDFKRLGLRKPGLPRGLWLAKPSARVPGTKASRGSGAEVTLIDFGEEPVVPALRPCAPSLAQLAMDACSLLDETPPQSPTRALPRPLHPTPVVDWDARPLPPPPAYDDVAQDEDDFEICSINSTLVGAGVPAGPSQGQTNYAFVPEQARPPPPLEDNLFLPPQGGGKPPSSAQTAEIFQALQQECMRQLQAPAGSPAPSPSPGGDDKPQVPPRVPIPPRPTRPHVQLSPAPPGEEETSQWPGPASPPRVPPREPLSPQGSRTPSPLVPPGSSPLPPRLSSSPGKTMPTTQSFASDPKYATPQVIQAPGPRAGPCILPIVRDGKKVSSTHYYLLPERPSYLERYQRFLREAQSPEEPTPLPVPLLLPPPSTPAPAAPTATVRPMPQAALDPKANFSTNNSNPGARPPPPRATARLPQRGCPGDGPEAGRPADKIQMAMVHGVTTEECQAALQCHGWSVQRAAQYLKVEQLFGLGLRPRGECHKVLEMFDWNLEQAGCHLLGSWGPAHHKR
Test: KINOMEscan competition binding
Conditions: compound 10.0 µM

compound string	kinase still bound, per cent of control, %
CC(=O)c1c(C)c2cnc(Nc3ccc(N4CCNCC4)cn3)nc2n(C2CCCC2)c1=O	92
COc1cc2ncnc(Nc3cccc(Cl)c3)c2cc1OC	61
COc1ccc(N(C(=O)Oc2cc(C(=O)Nc3cccc(C(F)(F)F)c3)ccc2C)c2ccnc(Nc3ccc(N4CCN(C)CC4)cc3)n2)c(OC)c1	4

----------
System: LRRK2 (human), Q5S007 [G2019S]
Sequence (Q5S007 whole entry G2019S, looked up): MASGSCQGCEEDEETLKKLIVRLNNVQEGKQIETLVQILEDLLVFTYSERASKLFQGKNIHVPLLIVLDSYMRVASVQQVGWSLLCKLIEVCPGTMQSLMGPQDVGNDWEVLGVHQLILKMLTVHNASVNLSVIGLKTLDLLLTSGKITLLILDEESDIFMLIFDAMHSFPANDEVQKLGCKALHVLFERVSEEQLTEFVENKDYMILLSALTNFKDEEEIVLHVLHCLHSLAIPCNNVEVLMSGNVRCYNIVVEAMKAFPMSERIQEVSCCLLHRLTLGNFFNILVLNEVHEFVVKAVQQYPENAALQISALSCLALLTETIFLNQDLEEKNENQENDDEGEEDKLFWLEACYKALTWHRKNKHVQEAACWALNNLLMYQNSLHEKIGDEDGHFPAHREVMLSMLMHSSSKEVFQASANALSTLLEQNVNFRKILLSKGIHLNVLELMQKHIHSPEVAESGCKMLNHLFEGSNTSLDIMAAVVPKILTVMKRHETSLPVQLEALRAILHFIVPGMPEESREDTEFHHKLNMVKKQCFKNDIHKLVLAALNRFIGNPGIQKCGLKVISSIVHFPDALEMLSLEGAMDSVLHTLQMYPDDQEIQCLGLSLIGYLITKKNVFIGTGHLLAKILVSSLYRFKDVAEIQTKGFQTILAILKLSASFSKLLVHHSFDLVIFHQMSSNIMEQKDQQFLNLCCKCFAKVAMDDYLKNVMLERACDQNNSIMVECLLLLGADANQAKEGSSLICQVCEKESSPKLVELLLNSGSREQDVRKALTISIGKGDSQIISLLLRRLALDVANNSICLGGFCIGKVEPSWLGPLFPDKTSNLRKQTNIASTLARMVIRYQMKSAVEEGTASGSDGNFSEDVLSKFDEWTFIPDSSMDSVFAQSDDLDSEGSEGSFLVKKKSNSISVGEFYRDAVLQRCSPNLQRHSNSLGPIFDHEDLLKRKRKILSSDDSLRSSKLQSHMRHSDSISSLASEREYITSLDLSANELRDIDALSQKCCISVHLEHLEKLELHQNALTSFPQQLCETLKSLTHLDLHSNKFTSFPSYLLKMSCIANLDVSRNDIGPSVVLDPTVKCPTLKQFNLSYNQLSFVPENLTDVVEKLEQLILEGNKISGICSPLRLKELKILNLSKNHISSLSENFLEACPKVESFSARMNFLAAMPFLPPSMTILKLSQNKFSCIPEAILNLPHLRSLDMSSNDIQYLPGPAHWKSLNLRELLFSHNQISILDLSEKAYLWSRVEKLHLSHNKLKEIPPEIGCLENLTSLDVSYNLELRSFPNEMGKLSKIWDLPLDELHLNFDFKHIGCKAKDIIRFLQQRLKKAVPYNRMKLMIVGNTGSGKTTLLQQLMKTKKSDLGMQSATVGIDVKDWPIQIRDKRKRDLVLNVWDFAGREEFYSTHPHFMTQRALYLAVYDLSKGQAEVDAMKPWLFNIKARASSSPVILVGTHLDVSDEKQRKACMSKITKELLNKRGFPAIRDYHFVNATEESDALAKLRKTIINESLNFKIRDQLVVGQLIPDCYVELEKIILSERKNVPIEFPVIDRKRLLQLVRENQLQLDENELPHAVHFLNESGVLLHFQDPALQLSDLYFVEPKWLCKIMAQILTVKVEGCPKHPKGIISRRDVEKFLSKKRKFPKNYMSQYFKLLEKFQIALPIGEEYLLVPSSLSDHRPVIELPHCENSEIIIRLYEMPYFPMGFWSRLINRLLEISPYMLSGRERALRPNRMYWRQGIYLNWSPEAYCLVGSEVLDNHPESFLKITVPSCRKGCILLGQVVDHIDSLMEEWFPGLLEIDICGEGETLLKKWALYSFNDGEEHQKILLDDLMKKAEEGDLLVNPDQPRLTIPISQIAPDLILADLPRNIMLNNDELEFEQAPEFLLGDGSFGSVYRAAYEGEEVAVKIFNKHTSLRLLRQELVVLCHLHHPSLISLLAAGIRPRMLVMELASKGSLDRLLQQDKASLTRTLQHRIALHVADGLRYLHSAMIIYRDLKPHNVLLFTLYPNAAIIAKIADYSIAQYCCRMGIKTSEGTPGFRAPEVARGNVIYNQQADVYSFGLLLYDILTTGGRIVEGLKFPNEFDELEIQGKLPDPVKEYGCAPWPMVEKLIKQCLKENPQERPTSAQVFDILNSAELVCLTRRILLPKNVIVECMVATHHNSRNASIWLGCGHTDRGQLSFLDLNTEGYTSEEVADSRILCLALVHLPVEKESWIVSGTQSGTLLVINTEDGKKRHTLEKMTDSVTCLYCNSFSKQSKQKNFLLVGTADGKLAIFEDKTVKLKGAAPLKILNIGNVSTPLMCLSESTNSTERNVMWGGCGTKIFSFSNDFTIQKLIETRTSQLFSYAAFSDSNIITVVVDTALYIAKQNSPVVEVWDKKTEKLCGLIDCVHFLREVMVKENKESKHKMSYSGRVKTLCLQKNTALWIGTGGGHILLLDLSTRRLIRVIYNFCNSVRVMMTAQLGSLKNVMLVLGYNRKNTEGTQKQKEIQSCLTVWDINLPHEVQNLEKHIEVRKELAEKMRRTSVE
Experiment: KINOMEscan competition binding
Details: compound 10.0 µM
Please use yes (1) for kinase still bound, per cent of control under 60% and no (0) for everything else, ties included.

compound string	cat
Nc1ccc(-c2ccc3ncc4ccc(=O)n(-c5cccc(C(F)(F)F)c5)c4c3c2)cn1	no (0)
C[C@@H](Oc1cc(-n2cnc3ccc(CN4CCN(C)CC4)cc32)sc1C(N)=O)c1ccccc1C(F)(F)F	yes (1)
O=C1NC(=O)/C(=C/c2ccc3nccc(-c4ccncc4)c3c2)S1	yes (1)
C=CC(=O)Nc1cc(NC(=O)c2ccc(C)c(NC(=O)c3ccno3)c2)cc(C(F)(F)F)c1	no (0)
Cc1ccc(NC(=O)c2cccc(C(C)(C)C#N)c2)cc1Nc1ccc2ncn(C)c(=O)c2c1	no (0)
N#Cc1c(NC(=O)c2cccc3ccccc23)sc2c1CCCC2	no (0)
C[C@@H](Oc1cc(-c2cnn(C3CCNCC3)c2)cnc1N)c1c(Cl)ccc(F)c1Cl	yes (1)
CN(C)C/C=C/C(=O)Nc1cccc(Nc2ncc3c(n2)N(C)c2ccccc2C(=O)N3C)c1	yes (1)
CCCS(=O)(=O)Nc1ccc(F)c(C(=O)c2c[nH]c3ncc(-c4ccc(Cl)cc4)cc23)c1F	no (0)
C=CC(=O)Nc1ccc(C(=O)c2sc(Nc3ccc(N4CCN(C)CC4)cc3OC)nc2N)cc1	yes (1)

----------
System: KIT (human), P10721 [D816H]
Sequence (P10721 whole entry D816H, looked up): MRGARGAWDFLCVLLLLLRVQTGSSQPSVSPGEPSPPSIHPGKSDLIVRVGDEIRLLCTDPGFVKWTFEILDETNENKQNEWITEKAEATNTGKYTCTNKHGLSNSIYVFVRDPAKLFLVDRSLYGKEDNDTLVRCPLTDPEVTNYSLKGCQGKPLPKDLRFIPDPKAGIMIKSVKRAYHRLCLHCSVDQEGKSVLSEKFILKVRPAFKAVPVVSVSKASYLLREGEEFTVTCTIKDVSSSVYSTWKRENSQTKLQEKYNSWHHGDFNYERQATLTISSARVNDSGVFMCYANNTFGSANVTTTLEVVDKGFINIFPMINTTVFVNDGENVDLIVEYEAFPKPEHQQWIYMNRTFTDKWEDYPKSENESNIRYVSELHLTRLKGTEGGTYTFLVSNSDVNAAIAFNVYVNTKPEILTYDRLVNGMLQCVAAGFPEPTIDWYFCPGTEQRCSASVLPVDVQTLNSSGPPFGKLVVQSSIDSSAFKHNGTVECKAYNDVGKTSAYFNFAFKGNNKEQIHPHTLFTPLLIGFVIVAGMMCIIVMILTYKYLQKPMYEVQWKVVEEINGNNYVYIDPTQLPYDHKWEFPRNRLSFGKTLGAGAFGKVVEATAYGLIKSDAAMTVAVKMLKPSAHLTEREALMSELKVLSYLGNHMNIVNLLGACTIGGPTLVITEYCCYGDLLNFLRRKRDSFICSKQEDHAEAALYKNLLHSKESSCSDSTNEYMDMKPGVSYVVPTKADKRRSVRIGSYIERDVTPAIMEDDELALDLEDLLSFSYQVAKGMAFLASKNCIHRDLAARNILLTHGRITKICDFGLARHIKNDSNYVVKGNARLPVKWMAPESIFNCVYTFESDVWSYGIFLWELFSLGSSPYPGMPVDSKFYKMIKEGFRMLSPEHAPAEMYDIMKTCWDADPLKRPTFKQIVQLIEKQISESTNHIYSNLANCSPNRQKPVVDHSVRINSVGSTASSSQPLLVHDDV
Assay: KINOMEscan competition binding
Settings: compound 10.0 µM
List of kinase still bound, per cent of control values.

compound string	kinase still bound, per cent of control
CCN(CCO)CCCOc1ccc2c(Nc3cc(CC(=O)Nc4cccc(F)c4)[nH]n3)ncnc2c1	34%
Nc1ccc(-c2ccc3ncc4ccc(=O)n(-c5cccc(C(F)(F)F)c5)c4c3c2)cn1	80%
N#Cc1c(NC(=O)c2cccc3ccccc23)sc2c1CCCC2	85%
CCN1CCN(C(=O)Cc2ccc(Nc3ncc(F)c(Nc4ccc(C(=O)Nc5ccccc5Cl)cc4)n3)cc2)CC1	25%
COc1cc(C(=O)N2CCC(N3CCN(C)CC3)CC2)ccc1Nc1ncc2c(n1)N(C)c1ccccc1C(=O)N2C	100%
CN(C)C/C=C/C(=O)Nc1cccc(Nc2ncc3c(n2)N(C)c2ccccc2C(=O)N3C)c1	33%
O=C(NOC[C@H](O)CO)c1ccc(F)c(F)c1Nc1ccc(I)cc1F	91%
CNC(=O)Nc1ccc(-c2nc(N3CC4CCC(C3)O4)c3cnn(C4CCC5(CC4)OCCO5)c3n2)cc1	86%
